Assay: NCI Yeast Anticancer Drug Screen. Data for the mec2-1 strain (AID 157)
Conditions: S. cerevisiae mec2-1 strain, at 50.0 µM, hits give high values
Compounds without any hit were thinned out: in the full panel of roughly 79,000, 15% have a hit.
Values of growth inhibition greater than or equal to 40% map to yes; values below map to no.

Dear colleague, could you confirm whether N#CC1(C#N)C2C=CC(c3coc4cccc2c34)C1(C#N)C#N (centres undefined) has growth inhibition at or above 40%?
no

Dear colleague, could you confirm whether CC(C)(C)C(=O)CC(=O)C(F)(F)C(F)(F)C(F)(F)F.[Ag] has growth inhibition at or above 40%?
yes

Dear colleague, could you confirm whether CCCCCCCCCCCN1C(=O)c2ccccc2S1(=O)=O has growth inhibition at or above 40%?
no

Dear colleague, could you confirm whether C/C(CCC(=O)O)=N/Nc1ccc(C(=O)O)cc1 has growth inhibition at or above 40%?
no

Dear colleague, could you confirm whether NCCCCC(N)C(=O)Nc1ccc2ccccc2c1 (centres undefined) has growth inhibition at or above 40%?
yes

Dear colleague, could you confirm whether CC(C)C(=O)c1ccc([N+](=O)[O-])o1 has growth inhibition at or above 40%?
yes

Dear colleague, could you confirm whether Fc1ccc2[nH]ccc2c1 has growth inhibition at or above 40%?
no

Dear colleague, could you confirm whether c1ccc(-c2nc3nc4ccccc4nc3nc2-c2ccccn2)nc1 has growth inhibition at or above 40%?
no

Dear colleague, could you confirm whether O=c1oc2ccccc2c(O)c1/C=N/C(=S)NCCc1ccccc1 has growth inhibition at or above 40%?
no

Dear colleague, could you confirm whether CCOC(=O)/C(Cl)=C(\C)Nc1nc2c(ccc3ccccc32)s1 has growth inhibition at or above 40%?
no

Dear colleague, could you confirm whether COc1cccc(NC(=S)NC2CC(C)CC(C)(C)C2)c1 (centres undefined) has growth inhibition at or above 40%?
yes

Dear colleague, could you confirm whether CCCN(CCC)c1ccc(/C=C/c2ccnc3ccccc23)cc1 has growth inhibition at or above 40%?
yes

Dear colleague, could you confirm whether COC(=O)C(=Cc1c[nH]c2ccccc12)C(=O)OC has growth inhibition at or above 40%?
no

Dear colleague, could you confirm whether N#CC(Cl)CS(=O)(=O)c1ccccc1 (centres undefined) has growth inhibition at or above 40%?
yes
